Entries and their IC50
target.or.test.system: human P2X2/3 receptors (Homo sapiens, UniProt P56373+Q9UBL9)
Construct: expressed in transfected cells; host or cells: human astrocytoma 1321N1 (1312N1 [sic])
Sequence (P56373 whole entry): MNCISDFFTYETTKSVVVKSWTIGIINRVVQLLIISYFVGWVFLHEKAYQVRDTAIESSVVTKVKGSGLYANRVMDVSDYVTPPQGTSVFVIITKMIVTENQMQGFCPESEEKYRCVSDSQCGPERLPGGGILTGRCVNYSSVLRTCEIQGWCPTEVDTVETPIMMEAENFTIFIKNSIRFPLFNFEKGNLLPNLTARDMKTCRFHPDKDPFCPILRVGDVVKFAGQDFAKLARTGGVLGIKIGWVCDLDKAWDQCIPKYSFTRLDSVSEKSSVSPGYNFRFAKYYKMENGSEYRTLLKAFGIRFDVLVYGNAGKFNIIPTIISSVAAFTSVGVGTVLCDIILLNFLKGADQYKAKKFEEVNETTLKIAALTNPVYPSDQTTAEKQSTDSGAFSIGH
Sequence (Q9UBL9 whole entry): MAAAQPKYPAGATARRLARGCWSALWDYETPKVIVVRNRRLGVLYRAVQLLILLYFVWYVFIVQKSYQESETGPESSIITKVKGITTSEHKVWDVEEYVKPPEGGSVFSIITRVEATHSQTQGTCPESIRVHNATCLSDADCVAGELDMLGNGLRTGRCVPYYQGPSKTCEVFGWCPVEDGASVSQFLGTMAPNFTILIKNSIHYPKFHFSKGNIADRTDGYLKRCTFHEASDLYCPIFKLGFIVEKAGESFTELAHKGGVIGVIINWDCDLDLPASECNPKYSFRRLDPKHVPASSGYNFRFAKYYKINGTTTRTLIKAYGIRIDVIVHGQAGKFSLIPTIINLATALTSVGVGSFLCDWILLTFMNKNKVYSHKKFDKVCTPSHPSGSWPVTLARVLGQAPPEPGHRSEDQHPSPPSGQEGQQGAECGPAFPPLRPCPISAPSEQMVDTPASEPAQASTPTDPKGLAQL
assay: Intracellular calcium measurement, antagonist activity at human P2X2/3 receptors (hP2X23 1321N1), Fluo8
Type: cell-based
setup.conditions: column 4); 1321N1 cells, human P2X2/3, Fluo8, agonist ATP at EC50; read-out: 4) hP2X2/3 IC50 [nM] (1321N1)

Here are 6 compounds together with their reported answers.
CCc1cc2n(CC(=O)Nc3ccc(F)cn3)c3c(c(=O)n2n1)CN(C1CCN(S(C)(=O)=O)C1)C3=O (stereo not shown) [Example 272] = > 32000 nM
CC(C)N1Cc2c(n(CC(=O)Nc3ccc(F)cn3)c3cc(C4CCN(C(=O)OC(C)(C)C)C4)nn3c2=O)C1=O (racemic) [Example 226] = 3050 nM
Cc1ccc(NC(=O)Cn2c3c(c(=O)n4nc(C(C)(C)C)cc24)CN([C@@H](C)C(C)C)C3=O)nc1 [Example 11] = > 20600 nM
CC(C)N1Cc2c(n(CC(=O)Nc3ccc(F)cn3)c3cc(NC(=O)C(F)F)nn3c2=O)C1=O [Example 283] = > 32000 nM
CCc1cc2n(CC(=O)Nc3ccc(F)cn3)c3c(c(=O)n2n1)CN(CC1CCCN1)C3=O.Cl (stereo not shown) [Example 239] = > 32000 nM
CC(C)c1cc2n(CC(=O)Nc3ccc(F)cn3)c3c(c(=O)n2n1)CN(C(C)C)C3=O [Example 7] = 8000 nM

Would you kindly look at the next entry?
// sample CCc1cc2n(CC(=O)Nc3ccc(F)cn3)c3c(c(=O)n2n1)CN(C[C@@H]1CNCCO1)C3=O [Example 246] , its IC50 was > 32000 nM
